assayed target: Sodium-dependent dopamine transporter (Homo sapiens) (UniProt Q01959)
Sequence (Q01959 whole entry, looked up): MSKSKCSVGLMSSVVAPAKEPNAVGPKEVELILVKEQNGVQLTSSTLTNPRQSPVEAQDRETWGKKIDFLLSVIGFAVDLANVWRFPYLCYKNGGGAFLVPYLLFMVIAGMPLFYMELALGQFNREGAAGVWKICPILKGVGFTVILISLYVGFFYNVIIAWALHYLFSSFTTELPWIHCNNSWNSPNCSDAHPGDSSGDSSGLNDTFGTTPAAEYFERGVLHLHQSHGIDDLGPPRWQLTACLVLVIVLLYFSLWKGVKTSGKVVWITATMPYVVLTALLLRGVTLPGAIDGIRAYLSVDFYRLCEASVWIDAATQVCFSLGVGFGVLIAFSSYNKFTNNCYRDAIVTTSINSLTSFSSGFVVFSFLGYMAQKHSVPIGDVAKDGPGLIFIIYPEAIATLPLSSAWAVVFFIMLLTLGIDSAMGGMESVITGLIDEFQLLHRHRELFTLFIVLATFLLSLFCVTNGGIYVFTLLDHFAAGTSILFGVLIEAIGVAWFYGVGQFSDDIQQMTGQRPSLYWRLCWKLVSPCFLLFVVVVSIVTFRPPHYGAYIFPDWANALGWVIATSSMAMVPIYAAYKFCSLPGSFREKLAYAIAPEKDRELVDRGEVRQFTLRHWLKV
run description: modulators of human DAT uptake with cocaine – cell-based, LLC-PK1 hDAT, [14C]-dopamine uptake, MLSMR, cocaine antagonist project, primary screen (AID 449768);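 note: scored against the spread of the other compound wells on the same plate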
condition: LLC-PK1 hDAT cells, [14C]-dopamine uptake with cocaine IC80; at 10 µM; actives deviate in either direction
The whole screen tested about 110,000 compounds, of which about 1,400 (1.3%) were called active. The list comes from a sample in which actives are over-represented; it also holds close analogues and randomly drawn compounds.
Mark fulfilled only for B-score values smaller than 0.01; exact matches and larger values are not fulfilled.

compound=c1ccc(-c2[nH]ncc2-c2nc3ccccc3[nH]2)cc1 category_label="not fulfilled"
compound="COc1ccccc1NC(=O)CSc1nnc(C)n1CC1CCCO1 (stereo unspecified)" category_label=fulfilled
compound=c1ccc2[nH]c(-c3nc4ccccc4[nH]3)nc2c1 category_label="not fulfilled"
compound=O=C(NC(Nc1nc2ccc([N+](=O)[O-])cc2s1)(C(F)(F)F)C(F)(F)F)c1ccccc1 category_label=fulfilled
compound=COc1ccc(-c2[nH]nc(-c3ccccc3)c2-c2nc3ccccc3[nH]2)cc1 category_label=fulfilled
compound=COc1ccccc1NC(=O)CSc1nnc(-c2ccoc2C)n1CCc1ccccc1 category_label="not fulfilled"

###

assayed target: Sodium-dependent dopamine transporter (Homo sapiens) (UniProt Q01959)
run description: modulators of human DAT uptake with cocaine – cell-based, LLC-PK1 hDAT, [14C]-dopamine uptake, MLSMR, cocaine antagonist project, primary screen (AID 449768);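 note: scored against the spread of the other compound wells on the same plate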
condition: LLC-PK1 hDAT cells, [14C]-dopamine uptake with cocaine IC80; at 10 µM; actives deviate in either direction
Hit rate of the full screen: of about 110,000 compounds, about 1,400 (1.3%) were called active. The entries come from a sample that favours actives as a whole.
Note to self: values exactly at -0.2 are true. So B-score at or above -0.2 is true, below is false.

molecule="C=C1C2C[C@H](O)C(C)(C)[C@@]2(O)[C@H](O)C[C@]23C[C@@](C)(O)[C@H](CC[C@H]12)[C@H]3O (stereo not given in full)" category_label=false
molecule=CC(=O)Nc1ccc(NC(=O)c2sc3nc4c(c(-c5ccc(C)cc5)c3c2N)CCC4)cc1 category_label=false
molecule=COc1ccc(CN2[C@@H](CC(=O)O)c3cc(F)ccc3S2(=O)=O)cc1 category_label=true
molecule="COC(=O)C1=C(N)Oc2cc(C)oc(=O)c2C1c1cccnc1 (stereo not given)" category_label=true
molecule=O=C(CCN1C(=O)c2ccccc2C1=O)NCCN1CCOCC1 category_label=false
molecule=NC(=O)c1sc2nc3c(c(-c4ccccc4)c2c1N)CCC3 category_label=true
molecule=Cc1cccc(NC(=O)c2sc3nc4c(c(-c5ccco5)c3c2N)CCC4)c1 category_label=false
molecule=Cc1ccc(Cc2c(C)nc3nc(SCC(=O)NCCN4CCOCC4)nn3c2C)cc1 category_label=true
molecule="Cc1nc(-c2ccc(Cl)cc2)sc1C1(C)CC(c2ccccc2F)=NO1 (stereo not given)" category_label=false

###

assayed target: Sodium-dependent dopamine transporter (Homo sapiens)
run description: modulators of human DAT uptake with cocaine – cell-based, LLC-PK1 hDAT, [14C]-dopamine uptake, MLSMR, cocaine antagonist project, primary screen (AID 449768);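 note: scored against the spread of the other compound wells on the same plate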
condition: LLC-PK1 hDAT cells, [14C]-dopamine uptake with cocaine IC80; at 10 µM; actives deviate in either direction
Out of some 110,000 compounds screened, about 1,400 (1.3%) were called active. The sample holds actives, similar compounds and a random draw of the others, so the mix is not that of the screen.
readout kind: B-score

molecule=Cc1ccc(OCC(=O)Nc2ccc(-c3nnc(-c4ccco4)o3)cc2)cc1 measured_result=-0.0188
molecule=CC(=O)Nc1cc(C(=O)O)ccc1S(=O)(=O)c1ccc(Cl)cc1 measured_result=-0.803
molecule="COP1(=O)C[C@@H](O)[C@@H](O)[C@@H](COCc2ccccc2)O1 (stereo not given in full)" measured_result=-0.427
molecule=CCOC(=O)N1CCN(C(=O)c2ccc(S(=O)(=O)c3ccc(C)cc3)c(NC(C)=O)c2)CC1 measured_result=-7.14
molecule=Cc1ccc(OCC(=O)Nc2ccc(-c3nc4ncccc4o3)cc2)cc1 measured_result=-8.77

###

assayed target: Sodium-dependent dopamine transporter (Homo sapiens)
run description: modulators of human DAT uptake with cocaine – cell-based, LLC-PK1 hDAT, [14C]-dopamine uptake, MLSMR, cocaine antagonist project, primary screen (AID 449768);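 note: scored against the spread of the other compound wells on the same plate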
condition: LLC-PK1 hDAT cells, [14C]-dopamine uptake with cocaine IC80; at 10 µM; actives deviate in either direction
The campaign covered roughly 110,000 compounds. About 1,400 (1.3%) were called active. Shown is part of a subset that was picked to be rich in actives.
# B-score per entry
readout kind: B-score

compound=O=C(CCCCCn1c(=O)[nH]c2ccccc2c1=O)NCCc1c[nH]c2ccccc12 readout_kind=B-score measured_result=0.015
compound=CC(=O)Oc1ccc(C(=O)Nc2nccs2)cc1 readout_kind=B-score measured_result=-1.53
compound=Oc1c(Cl)cc(Cl)c(Cl)c1Cc1c(O)c(Cl)cc(Cl)c1Cl readout_kind=B-score measured_result=-5.94
compound="CC(=O)Nc1sc2c(c1C(c1cccc(F)c1)N1CCN(CCO)CC1)CCCC2 (stereo unspecified)" readout_kind=B-score measured_result=0.298
compound=NC(=O)CC[C@@H]1NC(=O)[C@H](CO)NC(=O)c2cc([N+](=O)[O-])cc(I)c2NCC[C@@H](C(N)=O)NC1=O readout_kind=B-score measured_result=-0.848
compound="CC1=C(C(=O)OCc2ccccc2)C(c2ccc(C(F)(F)F)cc2)NC(=O)N1CCCCCC(=O)O (stereo unspecified)" readout_kind=B-score measured_result=0.765
compound=COC(=O)COc1cccc2c(=O)n(CC(=O)NCCc3ccc(OC)c(OC)c3)ccc12 readout_kind=B-score measured_result=-1.43
compound=CCO[C@@H]1OC(C(=O)NCc2nc3ccccc3[nH]2)=C[C@H](C2CCCCC2)[C@H]1CCCO readout_kind=B-score measured_result=0.35
compound=Cc1ncn(C23CC4CC(CC(O)(C4)C2)C3)n1 readout_kind=B-score measured_result=-8.14
compound="C#CCOCCOCCOCCNc1nc(N2CCN(C(=O)[C@H](CCC(=O)O)n3cc(C(N)CO)nn3)CC2)nc(N2CCN(C(=O)[C@H](CCCCN)n3cc(C(N)CC(C)C)nn3)CC2)n1 (stereo partly specified)" readout_kind=B-score measured_result=-0.496
compound=Cc1c(C(=O)N2CCOCC2)[nH]c2ccc(OCc3ccccc3)cc12 readout_kind=B-score measured_result=2.65
compound="Cc1ccc(-c2noc(-c3ccccc3C(=O)NCC3CCCO3)n2)cc1 (stereo unspecified)" readout_kind=B-score measured_result=-0.191
compound="CC(N)C12CC3CC(CC(O)(C3)C1)C2 (stereo unspecified)" readout_kind=B-score measured_result=-0.549
compound=Cc1ccc(-c2cc(=O)c3ccc(F)cc3[nH]2)cc1 readout_kind=B-score measured_result=0.343
compound="CN1CCN(C(CNS(=O)(=O)c2cccs2)c2cccnc2)CC1 (stereo unspecified)" readout_kind=B-score measured_result=-0.00301
compound=CCN1C(=O)N[C@@H](CCc2ccccc2)C(C(=O)OC)=C1C readout_kind=B-score measured_result=0.0945
compound=Cc1ccc(NC(=O)CN2CCc3ccccc3C2)cc1 readout_kind=B-score measured_result=-0.0113
compound="CC(C)NC(=O)NCCCCCCS(C)=O (stereo unspecified)" readout_kind=B-score measured_result=0.321
compound=CCOC(=O)c1ccccc1NC(=O)c1c(N)n(C)c(=O)[nH]c1=O readout_kind=B-score measured_result=-0.18
compound="Cc1ccc(S(=O)(=O)N2CCC(C(=O)NCC3CCCO3)CC2)cc1 (stereo unspecified)" readout_kind=B-score measured_result=-0.801
compound=O=C(Nc1ccc(S(=O)(=O)N2CCc3ccccc3C2)cc1)c1ccccc1 readout_kind=B-score measured_result=-0.732

###

assayed target: Sodium-dependent dopamine transporter (Homo sapiens)
run description: modulators of human DAT uptake with cocaine – cell-based, LLC-PK1 hDAT, [14C]-dopamine uptake, MLSMR, cocaine antagonist project, primary screen (AID 449768);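 note: scored against the spread of the other compound wells on the same plate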
condition: LLC-PK1 hDAT cells, [14C]-dopamine uptake with cocaine IC80; at 10 µM; actives deviate in either direction
Screen size: about 110,000 compounds; about 1,400 (1.3%) were called active.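 The calls were made as follows: active = Z score or B-score, a plate-position-corrected score, falls beyond the plate's 99.7% confidence bounds, in either direction; inactive = both scores lie inside the 99.7% bounds.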 Many of the other results were omitted from the sample, so actives are more common in it than they were.
Classes used: active, inactive

molecule=Cc1nnc(NC(=O)CCCOc2ccccc2)s1 assayed_target="Sodium-dependent dopamine transporter (Homo sapiens)" category_label=active
molecule="CC1(c2nnc(-c3ccncc3)o2)CC(c2cccnc2)=NO1 (configuration not stated)" assayed_target="Sodium-dependent dopamine transporter (Homo sapiens)" category_label=inactive
molecule=COc1cc2[nH]c(=O)n(CCC(=O)NC3CCN(Cc4ccccc4)CC3)c(=O)c2cc1OC assayed_target="Sodium-dependent dopamine transporter (Homo sapiens)" category_label=active
molecule=COC(C[C@@H]1O[C@@H]1C(=O)[C@@H](C)OCc1ccccc1)OC assayed_target="Sodium-dependent dopamine transporter (Homo sapiens)" category_label=inactive
molecule=COc1ccc(NC(=O)ON=C2c3ccccc3-c3ccccc32)cc1 assayed_target="Sodium-dependent dopamine transporter (Homo sapiens)" category_label=active
molecule=CCOc1cc2[nH]c(=O)n(CCC(=O)NCc3ccc(OC)cc3)c(=O)c2cc1OCC assayed_target="Sodium-dependent dopamine transporter (Homo sapiens)" category_label=inactive
molecule=COc1ccc(NC(=O)c2ccc(OC)cc2)cc1 assayed_target="Sodium-dependent dopamine transporter (Homo sapiens)" category_label=inactive
molecule=O=S(=O)(c1cccc(S(=O)(=O)N2CCC(n3nnc4ccccc43)CC2)c1)N1CCCCC1 assayed_target="Sodium-dependent dopamine transporter (Homo sapiens)" category_label=inactive
molecule=O=C(c1ccccc1)c1cc(-c2ccccn2)c(N2CCOCC2)s1 assayed_target="Sodium-dependent dopamine transporter (Homo sapiens)" category_label=inactive
molecule=COCC(=O)Nc1nnc(COc2ccccc2)s1 assayed_target="Sodium-dependent dopamine transporter (Homo sapiens)" category_label=inactive
molecule=CCc1ccc2ncc(C(=O)c3ccccc3)c(N3CCOCC3)c2c1 assayed_target="Sodium-dependent dopamine transporter (Homo sapiens)" category_label=active
molecule=O=c1[nH]snc1-c1c(Cl)cccc1Cl assayed_target="Sodium-dependent dopamine transporter (Homo sapiens)" category_label=inactive
molecule=O=C(NCC1CC1)c1onc(CSc2ccccc2)c1C(=O)NCC1CC1 assayed_target="Sodium-dependent dopamine transporter (Homo sapiens)" category_label=inactive
molecule="COc1ccc(OCCCC(=O)Nc2nnc(C3CCCO3)s2)cc1 (configuration not stated)" assayed_target="Sodium-dependent dopamine transporter (Homo sapiens)" category_label=inactive
molecule="COc1ccc(N2C(=O)C3CCCN3C2c2cc(OC)c(OC)cc2OC)cc1 (configuration not stated)" assayed_target="Sodium-dependent dopamine transporter (Homo sapiens)" category_label=inactive
molecule=NC1=NC[C@@H](Cc2ccc(O)cc2)N1CC1CCCCC1 assayed_target="Sodium-dependent dopamine transporter (Homo sapiens)" category_label=inactive
molecule="CC1(C)CC[C@]2(C(=O)O)CC[C@]3(C)C(=CCC4[C@@]5(C)CC[C@H](O)C(C)(C)C5[C@H](O)C[C@]43C)[C@@H]2C1 (some centres not stated)" assayed_target="Sodium-dependent dopamine transporter (Homo sapiens)" category_label=inactive
molecule=NCCCC[C@@H]1NC(=O)[C@H](CCC(=O)O)NC(=O)c2cc([N+](=O)[O-])cc(I)c2NCC[C@@H](C(N)=O)NC1=O assayed_target="Sodium-dependent dopamine transporter (Homo sapiens)" category_label=inactive
molecule="CCOC(=O)c1ccc(N2C(=O)CC(N(C)Cc3ccccc3)C2=O)cc1 (configuration not stated)" assayed_target="Sodium-dependent dopamine transporter (Homo sapiens)" category_label=inactive
molecule=COc1ccc2nc(NC(=O)c3ccc(Br)s3)sc2c1 assayed_target="Sodium-dependent dopamine transporter (Homo sapiens)" category_label=active
molecule="COc1ccc(CNC(=O)C2(CC3CC(c4ccccc4)=NO3)CCN(C(=O)c3cccc(O)c3)CC2)cc1 (configuration not stated)" assayed_target="Sodium-dependent dopamine transporter (Homo sapiens)" category_label=inactive
molecule=Nc1nnc(SCCN2C(=O)c3ccccc3S2(=O)=O)s1 assayed_target="Sodium-dependent dopamine transporter (Homo sapiens)" category_label=active
molecule=C=C1CCN([C@H](C(=O)NCc2cc(OC)c(OC)c(OC)c2)C(C)C)S(=O)(=O)c2ccccc21 assayed_target="Sodium-dependent dopamine transporter (Homo sapiens)" category_label=inactive
molecule=O=C(O)CCSc1nnc(-c2ccccc2)n1-c1ccccc1 assayed_target="Sodium-dependent dopamine transporter (Homo sapiens)" category_label=inactive
molecule=COc1ccc(C#Cc2c(-c3ccc(OC)cc3)oc3ccc(-c4ccc5c(c4)OCO5)cc23)cc1 assayed_target="Sodium-dependent dopamine transporter (Homo sapiens)" category_label=inactive
molecule=O=C1N[C@@H](Cc2ccccc2)C(=O)N2[C@@H]3N(S(=O)(=O)c4ccc(F)cc4)c4ccccc4[C@]3(Br)C[C@@H]12 assayed_target="Sodium-dependent dopamine transporter (Homo sapiens)" category_label=inactive
molecule="CC(C)CC(CO)N1CCN(C(=O)c2ccc(Cl)cc2Cl)CCC1=O (configuration not stated)" assayed_target="Sodium-dependent dopamine transporter (Homo sapiens)" category_label=inactive
molecule=O=S(=O)(c1cccc(-c2nnc(SC(F)F)n2-c2ccccc2)c1)N1CCCCC1 assayed_target="Sodium-dependent dopamine transporter (Homo sapiens)" category_label=active
molecule=C/C=C(\C)C(=O)NCCN1C2=NC[C@H](Cc3ccc(O)cc3)N2C[C@@H]1Cc1ccc(OC)cc1 assayed_target="Sodium-dependent dopamine transporter (Homo sapiens)" category_label=inactive
molecule=COc1ccccc1C1=CC(=O)CCC1 assayed_target="Sodium-dependent dopamine transporter (Homo sapiens)" category_label=inactive
molecule=C#CCNC(=O)[C@H](Cc1ccc(C(=O)c2ccccc2)cc1)NC(=O)OC(C)(C)C assayed_target="Sodium-dependent dopamine transporter (Homo sapiens)" category_label=inactive
molecule=O=C(Cn1cnc2c(cnn2-c2ccccc2)c1=O)NCc1ccccc1 assayed_target="Sodium-dependent dopamine transporter (Homo sapiens)" category_label=inactive
molecule=CCCc1nnc(NC(=O)CN2C(=O)c3ccccc3S2(=O)=O)s1 assayed_target="Sodium-dependent dopamine transporter (Homo sapiens)" category_label=inactive
molecule=c1ccc(-n2ncc3c(N4CCCC4)ncnc32)cc1 assayed_target="Sodium-dependent dopamine transporter (Homo sapiens)" category_label=inactive
molecule="COc1ccc(N2C(=O)C3CCCN3C2c2cccc(OC)c2)cc1 (configuration not stated)" assayed_target="Sodium-dependent dopamine transporter (Homo sapiens)" category_label=active
molecule=COc1cccc(/C=N/NC(=O)c2cccc([N+](=O)[O-])c2)c1OS(=O)(=O)c1ccc(C)cc1 assayed_target="Sodium-dependent dopamine transporter (Homo sapiens)" category_label=inactive
molecule="CC(Sc1nc2c([nH]c3ccccc32)c(=O)n1C)c1ccccc1 (configuration not stated)" assayed_target="Sodium-dependent dopamine transporter (Homo sapiens)" category_label=inactive
molecule=CCCNC(=O)Nc1ccccc1C(=O)Nc1ccc(OC)cc1 assayed_target="Sodium-dependent dopamine transporter (Homo sapiens)" category_label=inactive
molecule=Cc1cn(C)c(=O)n(C)c1=O assayed_target="Sodium-dependent dopamine transporter (Homo sapiens)" category_label=inactive
molecule=CNC(=O)c1ccc2nc(NC(C)=O)sc2c1 assayed_target="Sodium-dependent dopamine transporter (Homo sapiens)" category_label=inactive
molecule=COc1ccc(CCNC(=O)CCCCn2c(=O)[nH]c3ccccc3c2=O)cc1OC assayed_target="Sodium-dependent dopamine transporter (Homo sapiens)" category_label=inactive
molecule=O=C1N[C@H](Cc2ccccc2)C(=O)N[C@H]1Cc1cn(S(=O)(=O)c2ccccc2)c2ccccc12 assayed_target="Sodium-dependent dopamine transporter (Homo sapiens)" category_label=inactive
